Numbers sourced from patent US4178442A.

Procedure Summary: in vivo
Condition Context: iv, read-out: Toxicity: LD50
Readout Type: log10 of LD50 (log10 of the value in mg/kg)

- Compound: "COc1cc(/C=C/C(=O)N2CCN(CC(O)CSc3ccc(C)cc3)CC2)cc(OC)c1OC (stereo not shown)"
  log10 of LD50: 1.96
- Compound: "COc1cc(/C=C/C(=O)N2CCN(CC(O)COc3ccc(CC#N)c4c3OCCO4)CC2)cc(OC)c1OC (stereo not shown)"
  log10 of LD50: 2.34
- Compound: "COc1cc(/C=C/C(=O)N2CCN(CC(O)COc3cccc4c3OCCO4)CC2)cc(OC)c1OC (stereo not shown)"
  log10 of LD50: 2.34
- Compound: "COc1cc(/C=C/C(=O)N2CCN(CC(O)COc3ccc(O)c4c3OCCO4)CC2)cc(OC)c1OC (stereo not shown)"
  log10 of LD50: 2.53
- Compound: "COc1cc(/C=C/C(=O)N2CCN(CC(O)COc3ccc(CC#N)cc3)CC2)cc(OC)c1OC (stereo not shown)"
  log10 of LD50: 2.35
- Compound: "COc1cc(/C=C/C(=O)N2CCN(CC(O)COc3cc(C(C)=O)cc4c3OCCO4)CC2)cc(OC)c1OC (stereo not shown)"
  log10 of LD50: 2.46
- Compound: "COc1cc(/C=C/C(=O)N2CCN(CC(O)COc3ccc(SC)cc3)CC2)cc(OC)c1OC (stereo not shown)"
  log10 of LD50: 2.27
- Compound: "COc1cc(/C=C/C(=O)N2CCN(CC(O)COc3ccc(C(C)C)cc3)CC2)cc(OC)c1OC (stereo not shown)"
  log10 of LD50: 2.41
- Compound: "COc1cccc(SCC(O)CN2CCN(C(=O)/C=C/c3cc(OC)c(OC)c(OC)c3)CC2)c1 (stereo not shown)"
  log10 of LD50: 2.35
- Compound: "COc1cc(/C=C/C(=O)N2CCN(CC(O)COc3ccc([N+](=O)[O-])cc3Cl)CC2)cc(OC)c1OC (stereo not shown)"
  log10 of LD50: 2.43
- Compound: "COc1cc(/C=C/C(=O)N2CCN(CC(O)COc3ccc(C(N)=O)cc3)CC2)cc(OC)c1OC (stereo not shown)"
  log10 of LD50: 2.50
- Compound: "COc1cc(/C=C/C(=O)N2CCN(CC(O)COc3ccc(C(C)=O)cc3C)CC2)cc(OC)c1OC (stereo not shown)"
  log10 of LD50: 1.00
- Compound: "CCOC(=O)Cc1ccc(OCC(O)CN2CCN(C(=O)/C=C/c3cc(OC)c(OC)c(OC)c3)CC2)c2c1OCCO2 (stereo not shown)"
  log10 of LD50: 2.41
- Compound: "COc1cc(/C=C/C(=O)N2CCN(CC(O)COc3ccccc3F)CC2)cc(OC)c1OC (stereo not shown)"
  log10 of LD50: 2.20
- Compound: "COc1cc(/C=C/C(=O)N2CCN(CC(O)COc3cccc4c3CCCC4=O)CC2)cc(OC)c1OC (stereo not shown)"
  log10 of LD50: 2.34
- Compound: "COc1cc(/C=C/C(=O)N2CCN(CC(O)COc3ccc(C(C)(C)C)cc3)CC2)cc(OC)c1OC (stereo not shown)"
  log10 of LD50: 2.18

###

Procedure Summary: in vivo
Condition Context: iv, 300 mg/kg i.v., read-out: Toxicity (Mortality)

- Molecule: "CCC(=O)c1ccc(OCC(O)CN2CCN(C(=O)/C=C/c3cc(OC)c(OC)c(OC)c3)CC2)cc1 (stereo not shown)"
  mortality: "20%"

###

# key: entry, value: mortality
Procedure Summary: in vivo
Condition Context: po, p.o.: 2000 mg/kg, read-out: Toxicity (Mortality)
Readout Type: mortality

- Compound: "CCCCC(=O)Nc1ccc(OCC(O)CN2CCN(C(=O)/C=C/c3cc(OC)c(OC)c(OC)c3)CC2)c2c1OCCO2 (centres unmarked)"
  Value: "22%"
- Compound: "CCCNC(=O)Nc1ccc(OCC(O)CN2CCN(C(=O)/C=C/c3cc(OC)c(OC)c(OC)c3)CC2)c2c1OCCO2 (centres unmarked)"
  Value: "0%"
- Compound: "COc1cc(/C=C/C(=O)N2CCN(CC(O)COc3ccc(C#N)c4c3OCCO4)CC2)cc(OC)c1OC (centres unmarked)"
  Value: "0%"
- Compound: "CCCC(=O)Nc1ccc(OCC(O)CN2CCN(C(=O)/C=C/c3cc(OC)c(OC)c(OC)c3)CC2)c2c1OCCO2 (centres unmarked)"
  Value: "0%"
- Compound: "COc1cc(/C=C/C(=O)N2CCN(CC(O)COc3ccc(NC(=O)c4ccccc4)c4c3OCCO4)CC2)cc(OC)c1OC (centres unmarked)"
  Value: "22%"
- Compound: "COc1cc(/C=C/C(=O)N2CCN(CC(O)COc3ccc(NC(=O)C(C)(C)C)c4c3OCCO4)CC2)cc(OC)c1OC (centres unmarked)"
  Value: "11%"
- Compound: "COc1cc(/C=C/C(=O)N2CCN(CC(O)COc3ccc(C(=O)NC4CCCCC4)c4c3OCCO4)CC2)cc(OC)c1OC (centres unmarked)"
  Value: "0%"
- Compound: "COc1cc(/C=C/C(=O)N2CCN(CC(O)COc3ccc(NC(=O)C4CCCCC4)c4c3OCCO4)CC2)cc(OC)c1OC (centres unmarked)"
  Value: "10%"

###

Procedure Summary: in vivo
Condition Context: iv, 351 mg/kg i.v., read-out: Toxicity (Mortality)

- Molecule: "COc1cc(/C=C/C(=O)N2CCN(CC(O)COc3ccc(C(C)=O)cc3)CC2)cc(OC)c1OC (stereo not shown) [760 385]"
  mortality [%]: 10

###

Test system: anaesthetized dog
Procedure Summary: Antiangorous activity on anaesthetized dog: consumption of oxygen in the left ventricule and cardiac effort (KATZ's index)
Assay type: in vivo
Condition Context: Canis lupus familiaris, iv, 0.15 mg/kg i.v. slow perfusion, read-out: Diminution in consumption of O2
Would you please tag the item met when its inhibition in vivo at […] is 40% or above, and not met when it is below?

- Molecule: "CCNC(=O)Nc1ccc(OCC(O)CN2CCN(C(=O)/C=C/c3cc(OC)c(OC)c(OC)c3)CC2)c2c1OCCO2 (centres unmarked)"
  Category: "met"
- Molecule: "COc1cc(/C=C/C(=O)N2CCN(CC(O)COc3ccc(C(C)=O)c4c3OCCCO4)CC2)cc(OC)c1OC (centres unmarked)"
  Category: "not met"
- Molecule: "COc1cc(/C=C/C(=O)N2CCN(CC(O)COc3ccc(NC(=O)Nc4ccccc4)c4c3OCCO4)CC2)cc(OC)c1OC (centres unmarked)"
  Category: "met"
- Molecule: "COc1cc(/C=C/C(=O)N2CCN(CC(O)COc3ccc(C(C)C)cc3)CC2)cc(OC)c1OC (centres unmarked)"
  Category: "not met"
- Molecule: "COc1cc(/C=C/C(=O)N2CCN(CC(O)COc3ccc(C(=O)OC4CCCCC4)c4c3OCCO4)CC2)cc(OC)c1OC (centres unmarked)"
  Category: "met"
- Molecule: "COc1cc(/C=C/C(=O)N2CCN(CC(O)CSc3ccc(C(C)=O)c4c3OCCO4)CC2)cc(OC)c1OC (centres unmarked)"
  Category: "met"
